FYI, the data here is from the supplement of paper PMC10567573.

B1: HSP90AB1 (parent)
chain: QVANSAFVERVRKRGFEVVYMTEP

variants of: B1; test: protein stability index of a GFP-peptide fusion (GPS, HEK-293T) (PSI 1-6); higher = more stable; conditions: c terminus: a fixed tail appended;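 further: lentivirally expressed fusions sorted by FACS into six bins by GFP to DsRed ratio, PSI derived from sequencing read proportions per bin multiplied by bin number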
Lab note: anything with protein stability index at or over 2 counts as Fulfilled; the rest go in Not fulfilled.

R14W :: Fulfilled
P24K :: Fulfilled
K13W :: Fulfilled
V11A :: Fulfilled
R12Q :: Fulfilled
S5H :: Fulfilled
E23D :: Fulfilled
G15H :: Not fulfilled
Q1N :: Fulfilled
A3S :: Fulfilled
K13T :: Fulfilled
E23P :: Fulfilled
Y20K :: Fulfilled
R14G :: Fulfilled
R12D :: Fulfilled
A3P :: Fulfilled
R10V :: Not fulfilled
F7V :: Fulfilled
E23W :: Fulfilled
V19W :: Not fulfilled
V2I :: Fulfilled
V2Y :: Fulfilled
R14V :: Not fulfilled
F16P :: Fulfilled
A3E :: Fulfilled
M21P :: Fulfilled
V18H :: Fulfilled
V2Q :: Fulfilled
A6C :: Not fulfilled
V2C :: Not fulfilled
A3D :: Fulfilled
N4Q :: Fulfilled
Q1K :: Fulfilled
G15I :: Not fulfilled
K13Y :: Not fulfilled
A6L :: Fulfilled
T22S :: Fulfilled
E9R :: Not fulfilled
V8P :: Fulfilled
V2H :: Fulfilled
V8H :: Fulfilled
V11F :: Fulfilled
Q1R :: Not fulfilled
K13M :: Not fulfilled
V18F :: Not fulfilled
F16Y :: Fulfilled
Q1M :: Not fulfilled
T22I :: Not fulfilled
V18T :: Fulfilled
V11Q :: Fulfilled
E9W :: Fulfilled
F7D :: Fulfilled
S5A :: Fulfilled
S5L :: Fulfilled
R14E :: Fulfilled
V2N :: Fulfilled
E17I :: Fulfilled
G15T :: Fulfilled
V11P :: Fulfilled
R14I :: Fulfilled
M21L :: Fulfilled
V18K :: Fulfilled
Y20Q :: Fulfilled
V19I :: Fulfilled
V11R :: Fulfilled
F16T :: Fulfilled
E23T :: Not fulfilled
E23A :: Fulfilled
E23M :: Fulfilled
Q1S :: Fulfilled
A3G :: Fulfilled
N4R :: Fulfilled
T22L :: Not fulfilled
F16A :: Fulfilled
G15F :: Fulfilled
V18C :: Fulfilled
V8W :: Not fulfilled
K13R :: Fulfilled
